The values you see were collected from patent US11505575B2.

target: human PCSK9 / human LDLR EGFa domain interaction (Homo sapiens, UniProt Q8NBP7); assay: TR-FRET assay of inhibition of the PCSK9-LDLR protein-protein interaction; conditions: 20 nM biotinylated human PCSK9 + 20 nM his-tagged human LDLR EGFa domain, 2 hours room temperature
Sequence (Q8NBP7 153-692): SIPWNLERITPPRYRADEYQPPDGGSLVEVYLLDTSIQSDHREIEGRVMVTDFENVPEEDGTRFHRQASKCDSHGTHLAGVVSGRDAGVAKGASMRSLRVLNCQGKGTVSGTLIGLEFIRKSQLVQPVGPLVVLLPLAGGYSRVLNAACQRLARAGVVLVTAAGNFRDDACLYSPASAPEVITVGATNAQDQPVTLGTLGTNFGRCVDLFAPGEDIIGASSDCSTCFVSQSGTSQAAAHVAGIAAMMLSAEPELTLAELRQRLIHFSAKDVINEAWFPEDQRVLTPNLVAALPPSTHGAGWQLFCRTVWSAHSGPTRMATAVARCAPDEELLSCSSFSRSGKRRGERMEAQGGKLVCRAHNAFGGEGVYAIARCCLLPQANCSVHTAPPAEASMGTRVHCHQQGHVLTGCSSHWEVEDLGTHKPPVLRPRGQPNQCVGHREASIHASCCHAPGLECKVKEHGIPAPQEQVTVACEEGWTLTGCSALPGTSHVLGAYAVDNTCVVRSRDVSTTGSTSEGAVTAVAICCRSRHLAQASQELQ
Sequence (Q8NBP7 31-152 partner limits assumed): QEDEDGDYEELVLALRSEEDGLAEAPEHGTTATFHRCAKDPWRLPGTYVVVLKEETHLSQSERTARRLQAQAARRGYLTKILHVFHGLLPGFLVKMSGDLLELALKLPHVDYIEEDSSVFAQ
pIC50: −log10 of the molar value. *1 amine or outer side, *2 acyl side, *3 side chain or, on linkers, in order; H or OH if unused. Where a SMILES comes first, the peptide text is derived from it. Bridges are numbered along the chain shown (N, C = ends). [ ]: non-standard residue; d: D form. Trp(7-aza) = N[C@@H](Cc1c[nH]c2ncccc12)C(=O)O; mXylylene = c1cc(C[*:1])cc(C[*:2])c1; aThr = C[C@H](O)[C@H](N)C(=O)O; Tle = CC(C)(C)[C@H](N)C(=O)O; αMeV = CC(C)[C@](C)(N)C(=O)O; Aib = CC(C)(N)C(=O)O; Mpa = O=C(O)CCS
Reported Metric: pIC50

Dear colleague, I am looking for the recorded pIC50 of the following compound: CC(C)[C@]1(C)NC(=O)[C@H](Cc2ccc(O)cc2)NC(=O)[C@H](CCC(=O)O)NC(=O)C(C)(C)NC(=O)[C@H](Cc2c[nH]c3ncccc23)NC(=O)[C@H]([C@@H](C)O)NC(=O)[C@@H]2CCCN2C(=O)[C@H](Cc2ccc(O)cc2)NC(=O)[C@H](C(C)(C)C)NC(=O)CCSCc2cccc(c2)CSC[C@@H](C(N)=O)NC(=O)[C@H]([C@H](C)O)NC1=O [Compound 020] ([Mpa][Tle]YPT[Trp(7-aza)][Aib]EY[αMeV][aThr]C-NH2; linker 1-12 via mXylylene)
4.30 to 4.68

---

molecular target: PCSK9 (Homo sapiens); construct: biotin (biotinylated); test: PCSK9 Alexa FRET Plus assay (displacement of AlexaFluor647-tagged cyclic peptide Reagent B); assay type: binding; conditions: 0.5 nM PCSK9, 960 nM AF cyclic peptide Reagent B
Sequence (Q8NBP7 153-692): as the sequence (Q8NBP7 153-692) above
*1 amine or outer side, *2 acyl side, *3 side chain or, on linkers, in order; H or OH if unused. Where a SMILES comes first, the peptide text is derived from it. Bridges are numbered along the chain shown (N, C = ends). [ ]: non-standard residue; d: D form. ξ: configuration not given here. Trp(7-aza) = N[C@@H](Cc1c[nH]c2ncccc12)C(=O)O; pT = C[C@@H](OP(=O)(O)O)[C@H](N)C(=O)O; mXylylene = c1cc(C[*:1])cc(C[*:2])c1; aThr = C[C@H](O)[C@H](N)C(=O)O; Tle = CC(C)(C)[C@H](N)C(=O)O; αMeV = CC(C)[C@](C)(N)C(=O)O; Api = NC1(C(=O)O)CCNCC1; ξαMeS = CC(N)(CO)C(=O)O; Aib = CC(C)(N)C(=O)O; Mpa = O=C(O)CCS
# key: entry, value: IC50

Reference set (4 entries):
COCC1(C)NC(=O)[C@H](Cc2c[nH]c3ncccc23)NC(=O)[C@H]([C@@H](C)O)NC(=O)[C@@H]2CCCN2C(=O)[C@H](Cc2ccc(O)cc2)NC(=O)[C@H](C(C)(C)C)NC(=O)[C@@H](NC(C)=O)CSCc2cccc(c2)CSC[C@H](C(N)=O)NC(=O)[C@H]([C@@H](C)O)NC(=O)[C@](C)(C(C)C)NC(=O)[C@H](Cc2ccc(O)cc2)NC(=O)[C@H](C)NC1=O (some centres unmarked) [Compound 035] (Ac-C[Tle]YPT[Trp(7-aza)][ξαMeS](Me)AY[αMeV]T[dC]-NH2; linker 1-12 via mXylylene)
100 to 500 nM
CC1O[C@@H](C)[C@@H]2NC(=O)[C@@]1(C)NC(=O)[C@H](Cc1ccc(OP(=O)(O)O)cc1)NC(=O)[C@H](C)NC(=O)C(C)(C)NC(=O)[C@H](Cc1c[nH]c3ncccc13)NC(=O)[C@H]([C@@H](C)O)NC(=O)[C@@H]1CCCN1C(=O)[C@H](Cc1ccc(O)cc1)NC(=O)[C@H](C(C)(C)C)NC(=O)CCSCc1cccc(c1)CSC[C@@H](C(N)=O)NC2=O (some centres unmarked)
1 to 100 nM
CC(=O)N[C@H]1CSCc2cccc(c2)CSC[C@H](C(N)=O)NC(=O)[C@H]([C@H](C)O)NC(=O)[C@](C)(C(C)C)NC(=O)[C@H](Cc2ccc(O)cc2)NC(=O)[C@H](C)NC(=O)C(C)(C)NC(=O)[C@H](Cc2c[nH]c3ncccc23)NC(=O)[C@H]([C@@H](C)O)NC(=O)[C@@H]2CCCN2C(=O)[C@H](Cc2ccccc2)NC(=O)[C@H](C(C)(C)C)NC1=O [Compound 040] (Ac-C[Tle]FPT[Trp(7-aza)][Aib]AY[αMeV][aThr][dC]-NH2; linker 1-12 via mXylylene)
1 to 100 nM
CC(=O)N[C@H]1CSCc2cccc(c2)CSC[C@H](C(N)=O)NC(=O)[C@H]([C@@H](C)O)NC(=O)[C@](C)(C(C)C)NC(=O)[C@H](Cc2ccc(O)cc2)NC(=O)[C@H](C)NC(=O)C2(CCNCC2)NC(=O)[C@H](Cc2c[nH]c3ncccc23)NC(=O)[C@H]([C@@H](C)O)NC(=O)[C@@H]2CCCN2C(=O)[C@H](Cc2ccc(O)cc2)NC(=O)[C@H](C(C)(C)C)NC1=O [Compound 034] (Ac-C[Tle]YPT[Trp(7-aza)][Api]AY[αMeV]T[dC]-NH2; linker 1-12 via mXylylene)
1 to 100 nM

If you can, please state the reported IC50 value of CC(C)[C@]1(C)NC(=O)[C@H](Cc2ccc(O)cc2)NC(=O)[C@H](C)NC(=O)C(C)(C)NC(=O)[C@H](Cc2c[nH]c3ncccc23)NC(=O)[C@H]([C@@H](C)O)NC(=O)[C@@H]2CCCN2C(=O)[C@H](Cc2ccc(O)cc2)NC(=O)[C@H](C(C)(C)C)NC(=O)CCSCc2cccc(c2)CSC[C@@H](C(N)=O)NC(=O)[C@H]([C@@H](C)OP(=O)(O)O)NC1=O [Compound 015] ([Mpa][Tle]YPT[Trp(7-aza)][Aib]AY[αMeV][pT]C-NH2; linker 1-12 via mXylylene) .
1 to 100 nM
